Hey, just so you know, these numbers are from ChEMBL document CHEMBL1961873.

Biological target: NUAK family SNF1-like kinase 1 (Homo sapiens) (UniProt O60285)
Sequence (O60285 whole entry): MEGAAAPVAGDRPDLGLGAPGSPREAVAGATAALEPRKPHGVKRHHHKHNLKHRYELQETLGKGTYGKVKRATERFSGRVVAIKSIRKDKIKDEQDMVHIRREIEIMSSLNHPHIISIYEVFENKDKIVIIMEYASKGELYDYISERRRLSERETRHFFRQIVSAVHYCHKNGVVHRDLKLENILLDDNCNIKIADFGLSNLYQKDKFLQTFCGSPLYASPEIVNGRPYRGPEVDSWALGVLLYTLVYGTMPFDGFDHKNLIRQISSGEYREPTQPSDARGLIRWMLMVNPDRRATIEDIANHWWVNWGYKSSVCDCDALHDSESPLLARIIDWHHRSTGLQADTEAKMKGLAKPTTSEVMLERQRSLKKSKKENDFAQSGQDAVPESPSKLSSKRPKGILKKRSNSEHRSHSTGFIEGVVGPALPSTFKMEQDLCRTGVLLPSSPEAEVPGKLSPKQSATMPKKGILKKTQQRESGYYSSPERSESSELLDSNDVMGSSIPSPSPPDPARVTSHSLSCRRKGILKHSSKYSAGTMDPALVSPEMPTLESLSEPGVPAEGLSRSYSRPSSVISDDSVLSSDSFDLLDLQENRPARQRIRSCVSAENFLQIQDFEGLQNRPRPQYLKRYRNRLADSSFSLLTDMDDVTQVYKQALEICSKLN
Settings: at 1 µM
Description: GSK_PKIS: ARK5 mean inhibition at 1 uM [Nanosyn]
Some compounds, each annotated with its measured inhibition.
Write the numeric value and append its unit.

Here is how some compounds turned out for inhibition.
1) COc1cc(N2CCN(C(C)C)CC2)ccc1Nc1nc(Nc2cccc(F)c2C(=O)O)c2cc[nH]c2n1 = 5.91%
2) N#Cc1ccc2c(-c3ccnc(NC4CC4)n3)c(-c3ccc(F)cc3)nn2c1 = -2.95%
3) COc1ccc2ncn(-c3cc(O[C@H](C)c4ccccc4C(F)(F)F)c(C(N)=O)s3)c2c1 = 43.5%
4) c1ccc(-c2n[nH]cc2-c2ccnc(-c3ccc(OCCn4ccnc4)cc3)c2)nc1 = 7.14%
5) CCN1CCC(C(=O)Nc2n[nH]c3nnc(-c4cccc(F)c4F)cc23)CC1 = 5.44%
6) Cc1cc(O)cc(C)c1/C=C/c1cncc(C(N)=O)c1 = 2.46%

**Query** Please report the measured inhibition for CS(=O)(=O)Nc1ccc(-c2ccc3c(NC(=O)C4CC4)n[nH]c3c2)cc1 tested on NUAK family SNF1-like kinase 1 (Homo sapiens) (UniProt O60285).
**Result** 2.46%

**Query** Please report the measured inhibition for NS(=O)(=O)c1ccc(N/N=C2\C(=O)Nc3cccc(CCc4ccncc4)c32)cc1 tested on NUAK family SNF1-like kinase 1 (Homo sapiens) (UniProt O60285).
**Result** 62.5%

**Query** Please report the measured inhibition for COc1ccc(-c2nn3ncccc3c2-c2ccnc(Nc3ccc(F)c(F)c3)n2)cc1 tested on NUAK family SNF1-like kinase 1 (Homo sapiens) (UniProt O60285).
**Result** 5.51%

**Query** Please report the measured inhibition for CC1=C(C(=O)Nc2ccc3[nH]nc(C)c3c2)C(c2ccc(C(F)(F)F)cc2)CC(=O)N1 (stereo not given) tested on NUAK family SNF1-like kinase 1 (Homo sapiens) (UniProt O60285).
**Result** 31.1%

----------
Some molecules, each annotated with its measured inhibition.
Target: Tyrosine-protein kinase JAK2 (Homo sapiens)
Conditions: at 1 µM
Response body: numeric value in %, unit text excluded.

Here is how some molecules turned out for inhibition.
1) CS(=O)(=O)CCNCc1ccoc1-c1ccc2ncnc(Nc3ccc(OCc4ccccc4)cc3)c2c1 = -0.95
2) CNC(=O)c1cncc(/C=C/c2ccccc2C)c1 = 1.45
3) Cc1nnc(-c2cccc(-c3ccc(C(=O)NCC4CC4)cc3)c2)o1 = 2.79
4) COc1cc(N2CCN(C(C)C)CC2)ccc1Nc1nc(Nc2cccc(F)c2C(=O)O)c2cc[nH]c2n1 = 2.37
5) OCCCNc1nccc(-c2c(-c3ccc(F)cc3)nn3cc(C(F)(F)F)ccc23)n1 = 0.99

**Query** Note inhibition for the molecule shown: Cc1cc(O)cc(C)c1/C=C/c1cncc(C(N)=O)c1
**Result** 2.93

**Query** Note inhibition for the molecule shown: NS(=O)(=O)c1ccc(N/N=C2\C(=O)Nc3cccc(CCc4ccncc4)c32)cc1
**Result** 1.19

----------
Molecular target: Protein kinase C gamma type (Homo sapiens) (UniProt P05129);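 also: values are mean percent inhibition of PKC gamma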
Conditions: at 0.1 µM
Some molecules, each annotated with its measured inhibition.
Response body: numeric value in %, unit text excluded.

Here is how some molecules turned out for inhibition.
1) CCCNc1cccc(-n2ncc3c(N/N=C/c4ccncc4)ncnc32)c1 = 1.35
2) CN(c1ccc(NC(=O)NCCN2CCOCC2)cc1)c1ccnc(Nc2ccc(CS(C)(=O)=O)cc2)n1 = 2.51
3) NS(=O)(=O)c1cccc(N/C=C2\C(=O)Nc3ccccc32)c1 = 0.43

**Query** Note inhibition for the molecule shown: COc1cc(N2CCN(C(C)C)CC2)ccc1Nc1nc(Nc2cccc3ncccc23)c2cc[nH]c2n1
**Result** -0.77

**Query** Note inhibition for the molecule shown: O=C(O[C@H]1CN[C@H](C#Cc2cc3ncnc(Nc4ccc5c(cnn5Cc5ccccc5)c4)c3s2)C1)N1CCOCC1
**Result** 1.56

**Query** Note inhibition for the molecule shown: COc1cc2c(cc1Nc1nc(Nc3cccc(F)c3C(N)=O)c3cc[nH]c3n1)N(C(=O)CN1CCN(C(C)C)CC1)CC2
**Result** 1.36

----------
Biological target: Serine/threonine-protein kinase D3 (Homo sapiens) (UniProt O94806);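 also: each value is the mean of inhibition readings, from a kinase profiling panel run on the GSK PKIS inhibitor collection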
Sequence (O94806 whole entry): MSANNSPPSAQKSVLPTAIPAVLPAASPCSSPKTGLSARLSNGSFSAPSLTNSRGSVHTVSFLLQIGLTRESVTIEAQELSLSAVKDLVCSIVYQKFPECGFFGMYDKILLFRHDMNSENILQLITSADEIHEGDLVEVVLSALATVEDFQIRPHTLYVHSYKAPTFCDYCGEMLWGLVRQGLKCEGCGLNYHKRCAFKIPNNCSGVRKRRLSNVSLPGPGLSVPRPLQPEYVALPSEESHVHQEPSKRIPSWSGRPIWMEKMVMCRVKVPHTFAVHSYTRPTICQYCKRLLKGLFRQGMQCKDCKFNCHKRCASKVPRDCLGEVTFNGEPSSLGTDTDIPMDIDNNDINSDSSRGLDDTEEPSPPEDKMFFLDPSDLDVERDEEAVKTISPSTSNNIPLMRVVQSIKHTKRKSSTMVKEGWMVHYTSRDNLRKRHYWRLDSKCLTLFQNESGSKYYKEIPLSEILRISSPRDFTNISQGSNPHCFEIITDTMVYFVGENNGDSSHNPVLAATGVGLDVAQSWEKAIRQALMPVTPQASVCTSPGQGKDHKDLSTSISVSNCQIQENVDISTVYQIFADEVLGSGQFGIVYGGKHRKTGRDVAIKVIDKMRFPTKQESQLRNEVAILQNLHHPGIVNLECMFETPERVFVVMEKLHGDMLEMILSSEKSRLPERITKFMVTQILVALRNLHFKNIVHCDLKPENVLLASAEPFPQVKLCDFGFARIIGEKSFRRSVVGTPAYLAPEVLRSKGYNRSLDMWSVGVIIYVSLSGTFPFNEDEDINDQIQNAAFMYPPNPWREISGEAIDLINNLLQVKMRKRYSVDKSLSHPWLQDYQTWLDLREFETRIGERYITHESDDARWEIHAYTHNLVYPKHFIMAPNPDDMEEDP
Details: at 0.1 µM
Assign y whenever inhibition does not fall below 5%; assign n whenever it does.

1. CNC(=O)c1ncccc1Nc1nc(Nc2cc3c(cc2OC)CCCN3C(=O)CN(C)C)nc2[nH]ccc12 = y
2. Cc1cc(O)cc(C)c1/C=C/c1cncc(C(=O)OC(C)(C)C)c1 = n
3. COC(=O)Nc1nc2ccc(Oc3ccc(NC(=O)Nc4cc(C(F)(F)F)ccc4F)cc3)cc2s1 = n
4. Cc1ccc(-c2cc3c(NC(=O)C4CC4)ncnc3o2)cc1 = y

**Query** # check: inhibition of COc1cccc(-n2ncc3c(N/N=C/c4ccc(C(=O)NCCN(C)C)cc4)ncnc32)c1 is greater than or equal to 5%
**Result** n

**Query** # check: inhibition of NS(=O)(=O)c1ccc(N/N=C2\C(=O)Nc3ccc(C(=O)NCc4ccncc4)cc32)cc1 is greater than or equal to 5%
**Result** n

----------
Target: RAC-alpha serine/threonine-protein kinase (Homo sapiens) (UniProt P31749)
Sequence (P31749 whole entry): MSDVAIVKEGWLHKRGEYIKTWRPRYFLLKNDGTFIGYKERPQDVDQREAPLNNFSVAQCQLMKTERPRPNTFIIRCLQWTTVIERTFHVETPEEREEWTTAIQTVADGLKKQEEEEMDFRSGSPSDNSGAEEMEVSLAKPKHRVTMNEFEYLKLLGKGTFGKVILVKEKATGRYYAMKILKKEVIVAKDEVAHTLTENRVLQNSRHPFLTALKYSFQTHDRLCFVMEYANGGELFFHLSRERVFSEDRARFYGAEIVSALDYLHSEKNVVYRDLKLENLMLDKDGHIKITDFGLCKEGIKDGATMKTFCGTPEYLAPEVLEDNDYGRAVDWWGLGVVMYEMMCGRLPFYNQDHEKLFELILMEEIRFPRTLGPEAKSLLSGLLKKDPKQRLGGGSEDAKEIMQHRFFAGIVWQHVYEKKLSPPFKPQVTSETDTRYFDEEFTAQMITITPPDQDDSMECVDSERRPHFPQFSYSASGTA
Conditions: at 1 µM
Description: GSK_PKIS: AKT1 mean inhibition at 1 uM [Nanosyn]
TEST_READOUT: inhibition
Write the numeric value and append its unit.

Here is how some compounds turned out for inhibition.
1. CS(=O)(=O)CCNCc1ccc(-c2ccc3ncnc(Nc4ccc(OCc5cccc(C(F)(F)F)c5)cc4)c3c2)o1 = 0.01%
2. O=C(Nc1n[nH]c2nnc(-c3cccnc3)cc12)C1CC1 = -0.67%
3. OCCCNc1nccc(-c2c(-c3ccc(F)cc3)nn3cc(C(F)(F)F)ccc23)n1 = 0.71%
4. COc1cc2c(cc1Nc1nc(Nc3cccc(F)c3C(N)=O)c3cc[nH]c3n1)N(C(=O)CN1CCN(C(C)C)CC1)CC2 = 1.39%

Next compound, inhibition to be filled in.
**Query** Note inhibition for the compound shown: Cc1c2ccc(N(C)c3ccnc(Nc4cccc(S(N)(=O)=O)c4)n3)cc2nn1C
**Result** -4.81%

----------
Molecular target: Tyrosine-protein kinase JAK2 (Homo sapiens) (UniProt O60674)
Sequence (O60674 whole entry): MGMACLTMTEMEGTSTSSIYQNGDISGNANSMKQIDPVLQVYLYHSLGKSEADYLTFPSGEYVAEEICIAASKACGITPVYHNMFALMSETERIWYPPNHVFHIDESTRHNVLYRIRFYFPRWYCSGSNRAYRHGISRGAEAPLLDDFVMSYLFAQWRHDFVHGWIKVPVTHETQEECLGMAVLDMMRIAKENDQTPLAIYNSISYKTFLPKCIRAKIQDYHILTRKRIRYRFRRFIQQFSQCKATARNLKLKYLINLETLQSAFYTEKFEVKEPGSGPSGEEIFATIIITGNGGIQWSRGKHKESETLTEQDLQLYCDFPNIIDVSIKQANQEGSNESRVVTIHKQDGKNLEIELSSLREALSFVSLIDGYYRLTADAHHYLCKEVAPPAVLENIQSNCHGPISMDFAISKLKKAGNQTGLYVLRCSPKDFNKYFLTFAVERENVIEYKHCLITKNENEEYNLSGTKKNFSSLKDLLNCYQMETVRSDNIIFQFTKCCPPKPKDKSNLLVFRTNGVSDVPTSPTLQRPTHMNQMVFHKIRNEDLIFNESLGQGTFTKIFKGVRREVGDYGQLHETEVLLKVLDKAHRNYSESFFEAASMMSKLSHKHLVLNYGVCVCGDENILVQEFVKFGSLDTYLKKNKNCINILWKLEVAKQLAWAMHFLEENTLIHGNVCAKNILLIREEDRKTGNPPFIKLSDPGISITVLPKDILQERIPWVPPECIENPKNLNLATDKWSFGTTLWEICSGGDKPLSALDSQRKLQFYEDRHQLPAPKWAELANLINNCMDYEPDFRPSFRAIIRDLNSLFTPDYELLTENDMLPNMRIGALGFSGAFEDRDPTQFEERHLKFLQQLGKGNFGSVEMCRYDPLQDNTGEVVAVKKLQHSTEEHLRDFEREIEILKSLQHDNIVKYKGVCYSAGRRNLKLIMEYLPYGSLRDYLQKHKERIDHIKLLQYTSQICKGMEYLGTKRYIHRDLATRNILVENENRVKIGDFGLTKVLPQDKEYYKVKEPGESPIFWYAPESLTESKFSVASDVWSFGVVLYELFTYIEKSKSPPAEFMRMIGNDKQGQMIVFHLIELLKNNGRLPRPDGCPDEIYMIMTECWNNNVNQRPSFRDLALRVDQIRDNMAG
Conditions: at 1 µM
TEST_READOUT: inhibition (%)
Response body: numeric value in %, unit text excluded.

Here is how some compounds turned out for inhibition.
1. COc1cc2c(cc1Nc1nc(Nc3cccc(F)c3C(N)=O)c3cc[nH]c3n1)N(C(=O)CN1CCN(C(C)C)CC1)CC2 = 2.21
2. CCN1CCC(C(=O)Nc2n[nH]c3nnc(-c4cccc(F)c4F)cc23)CC1 = -0.03
3. CC1=C(C(=O)Nc2ccc3[nH]nc(C)c3c2)C(c2ccc(C(F)(F)F)cc2)CC(=O)N1 (centres undefined) = 82.4
4. CC1=C(C(=O)Nc2ccc3[nH]ncc3c2)C(c2ccc(F)cc2)N=C(c2ccc(C(F)(F)F)nc2)N1 (centres undefined) = 2.08
5. CN(C)CCNC(=O)Nc1ccc(N(C)c2ccnc(Nc3ccc(CS(C)(=O)=O)cc3)n2)cc1 = 3.2

**Query** Please report the measured inhibition for COc1cccc(Nc2nccc(-c3cnn4ncccc34)n2)c1 tested on Tyrosine-protein kinase JAK2 (Homo sapiens) (UniProt O60674).
**Result** 29.2

**Query** Please report the measured inhibition for NS(=O)(=O)c1cccc(N/C=C2\C(=O)Nc3ccccc32)c1 tested on Tyrosine-protein kinase JAK2 (Homo sapiens) (UniProt O60674).
**Result** 2.13

**Query** Please report the measured inhibition for O=C(O[C@H]1CN[C@H](C#Cc2cc3ncnc(Nc4ccc5c(cnn5Cc5ccccc5)c4)c3s2)C1)N1CCOCC1 tested on Tyrosine-protein kinase JAK2 (Homo sapiens) (UniProt O60674).
**Result** -1.59

**Query** Please report the measured inhibition for COc1c(C(N)=O)cc(-c2ccc(Cl)cc2)cc1-c1ccc(S(N)(=O)=O)cc1 tested on Tyrosine-protein kinase JAK2 (Homo sapiens) (UniProt O60674).
**Result** 3.05

**Query** Please report the measured inhibition for CCn1c(-c2nonc2N)nc2cncc(C(=O)NCCNC)c21 tested on Tyrosine-protein kinase JAK2 (Homo sapiens) (UniProt O60674).
**Result** 0.73

**Query** Please report the measured inhibition for COc1cccc(-n2ncc3c(N/N=C/c4ccc(C(=O)NCCN(C)C)cc4)ncnc32)c1 tested on Tyrosine-protein kinase JAK2 (Homo sapiens) (UniProt O60674).
**Result** 14.1

**Query** Please report the measured inhibition for CS(=O)(=O)CCNCc1ccc(-c2ccc3ncnc(Nc4ccc(OCc5ccccc5)cc4)c3c2)o1 tested on Tyrosine-protein kinase JAK2 (Homo sapiens) (UniProt O60674).
**Result** 0.35

**Query** Please report the measured inhibition for CC(C)c1ccc(-c2cc(-c3c[nH]nc3-c3ccccn3)ccn2)cc1 tested on Tyrosine-protein kinase JAK2 (Homo sapiens) (UniProt O60674).
**Result** 0.23

**Query** Please report the measured inhibition for CNC(=O)c1sc(-n2cnc3cc(OC)c(OC)cc32)cc1OCc1ccccc1C(F)(F)F tested on Tyrosine-protein kinase JAK2 (Homo sapiens) (UniProt O60674).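 Also: mean JAK2 inhibition from the GSK PKIS screen, compounds tested at 1 µM.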
**Result** 0.52
